The measured values listed here are drawn from paper PMC8956739.

Entries annotated with measured MIC P. aeruginosa ATCC 27853
# System: P. aeruginosa ATCC 27853
# Type: cell-based, Pseudomonas aeruginosa
# assay.setup: ATCC 27853
Residues, ends and D or L forms follow the SMILES beside them.
measured.parameter: MIC P. aeruginosa ATCC 27853

- compound: "CC[C@@H]1NC(=O)[C@@H](CC(C)C)NC(=O)[C@H](CCN)NC(=O)[C@@H](NC(=O)[C@H](CN)NC(=O)[C@@H](NC(=O)[C@H](CCN)NC(=O)c2ccc(Cl)cc2Cl)[C@@H](C)O)CCNC(=O)[C@H]([C@@H](C)O)NC(=O)[C@H](CCN)NC(=O)[C@H](CCN)NC1=O [Lipopeptide F365] (HELM PEPTIDE1{[O=C(c1ccc(Cl)cc1Cl)[*:2]].[Dab].T.[NC[C@H](N[*:1])C(=O)[*:2]].[Dab].[Dab].[dL].[Abu].[Dab].[Dab].T}$PEPTIDE1,PEPTIDE1,5:R3-11:R2$$$V2.0)"
  measured.parameter: "MIC P. aeruginosa ATCC 27853"
  recorded.measurement: "0.5 µg/mL"
- compound: "CCCCCCCC(=O)N[C@@H](CCN)C(=O)N[C@H](C(=O)N[C@@H](CCCN)C(=O)N[C@H]1CCNC(=O)[C@H]([C@@H](C)O)NC(=O)[C@H](CCN)NC(=O)[C@H](CCN)NC(=O)[C@H]([C@@H](C)O)NC(=O)[C@@H](CC(C)C)NC(=O)[C@H](CCN)NC1=O)[C@@H](C)O [Lipopeptide F252] (HELM PEPTIDE1{[CCCCCCCC(=O)[*:2]].[Dab].T.[Orn].[Dab].[Dab].[dL].T.[Dab].[Dab].T}$PEPTIDE1,PEPTIDE1,5:R3-11:R2$$$V2.0)"
  measured.parameter: "MIC P. aeruginosa ATCC 27853"
  recorded.measurement: "0.5 µg/mL"
- compound: "CC[C@@H]1NC(=O)[C@@H](CC(C)C)NC(=O)[C@H](CCN)NC(=O)[C@@H](NC(=O)[C@H](CN)NC(=O)[C@@H](NC(=O)[C@H](CCN)NC(=O)c2ccc(-c3ccccc3)cc2)[C@@H](C)O)CCNC(=O)[C@H]([C@@H](C)O)NC(=O)[C@H](CCN)NC(=O)[C@H](CCN)NC1=O [Lipopeptide F477] (HELM PEPTIDE1{[O=C(c1ccc(-c2ccccc2)cc1)[*:2]].[Dab].T.[NC[C@H](N[*:1])C(=O)[*:2]].[Dab].[Dab].[dL].[Abu].[Dab].[Dab].T}$PEPTIDE1,PEPTIDE1,5:R3-11:R2$$$V2.0)"
  measured.parameter: "MIC P. aeruginosa ATCC 27853"
  recorded.measurement: "1 µg/mL"
- compound: "CC[C@@H]1NC(=O)[C@@H](CC(C)C)NC(=O)[C@H](CCN)NC(=O)[C@@H](NC(=O)[C@H](CN)NC(=O)[C@@H](NC(=O)[C@H](CCN)NC(=O)c2cc(Cl)cc(Cl)c2)[C@@H](C)O)CCNC(=O)[C@H]([C@@H](C)O)NC(=O)[C@H](CCN)NC(=O)[C@H](CCN)NC1=O [Lipopeptide F381] (HELM PEPTIDE1{[O=C(c1cc(Cl)cc(Cl)c1)[*:2]].[Dab].T.[NC[C@H](N[*:1])C(=O)[*:2]].[Dab].[Dab].[dL].[Abu].[Dab].[Dab].T}$PEPTIDE1,PEPTIDE1,5:R3-11:R2$$$V2.0)"
  measured.parameter: "MIC P. aeruginosa ATCC 27853"
  recorded.measurement: "0.25 µg/mL"
